# MEASUREMENT NOTES: chemical genetic growth profiling, strain panel (AID 1159580);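 further: tested at 20 µM; growth read once vehicle control cultures reached saturation at 30 °C; 1 = growth at the plate median or of vehicle wells; lower values mean less growth of the strain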
# RECORDED CONDITIONS: S. cerevisiae deletion strains, growth OD, locus YIL073C, strain SPO22, active compounds read low
Screen size: about 5,500 compounds; about 2,000 (36%) were called active. Inconclusive results (about 18%) are left out. Some of the results follow.
Values of normalized growth strictly less than 1 map to 1.0, and values of at least 1 map to 0.0.

COMPOUND	CLASS LABEL
C[C@]12CCC3C(CC[C@H]4CC(=O)CC[C@]34C)C1CCC2=O (stereo partly drawn)	1.0
COc1cc2ccc(=O)oc2c(OC)c1OC	0.0
Cn1c([N+](=O)[O-])cnc1COC(N)=O	0.0

query: Criterion: normalized growth strictly below 1. Is it met by CC(C)CCCC(C)C1CCC2C3CCC4CC(=O)CCC4(C)C3CCC12C (stereo not drawn) ?
result: 0.0

query: Criterion: normalized growth strictly below 1. Is it met by C/C=C(\C)C(=O)OC1[C@@H]2C=C3C4CC(=O)O[C@@H](c5ccoc5)[C@]4(C)CCC3[C@@](C)(C2=O)[C@@H](C(O)C(=O)OC)C1(C)C (stereo partly drawn) ?
result: 0.0

query: Criterion: normalized growth strictly below 1. Is it met by COc1cc2c(cc1-c1coc3c4c(c(OC)cc3c1=O)OC(C)(C)C=C4)OCO2 ?
result: 1.0

query: Criterion: normalized growth strictly below 1. Is it met by CCS(=O)(=O)CCn1c([N+](=O)[O-])cnc1C ?
result: 0.0

query: Criterion: normalized growth strictly below 1. Is it met by COc1ccc2c(c1)[nH]c1c(C)nccc12 ?
result: 1.0

query: Criterion: normalized growth strictly below 1. Is it met by CCCC(=O)Nc1ncnc2c1ncn2C1O[C@@H]2COP(=O)(O)O[C@H]2[C@H]1OC(=O)CCC (stereo partly drawn) ?
result: 0.0

---

# MEASUREMENT NOTES: chemical genetic growth profiling, strain panel (AID 1159580)
# RECORDED CONDITIONS: S. cerevisiae deletion strains, growth OD, locus YPL241C, strain CIN2, active compounds read low
Among all 5,500 compounds or so, about 2,000 (36%) were called active. Not shown: some 18% with an inconclusive outcome. The list shows a part of the results.
Assignment: determine reported normalized growth for the given compounds.

Use these answered entries as a reference point.
COMPOUND	OUTCOME MEASURE	RESULT
C=CCN1CCC23c4c5ccc(O)c4O[C@H]2C(=O)CC[C@@]3(O)C1C5 (stereo not given in full)	normalized growth	1 (inactive)
CC(=O)/C(=C\N(C)C)Sc1nnc(C(F)(F)F)n1C	normalized growth	1.1 (inactive)
CCCc1cc(C(=O)Nc2ccc(N(CC)CC)cc2)nn1-c1ccccc1	normalized growth	0.92 (inactive)
CC(=O)O[C@H]1CC2(C)[C@@H](C[C@@H](O)[C@H]3[C@@]4(C)CC[C@@H](O)[C@@H](C)[C@@H]4CC[C@@]32C)C1=C(CCC=C(C)C)C(=O)O (stereo not given in full)	normalized growth	1.01 (inactive)
COc1ccc(Cc2nccc3cc(OC)c(OC)cc23)cc1OC	normalized growth	1.01 (inactive)
O=C(NCCNc1ccc(C(F)(F)F)cc1[N+](=O)[O-])c1cccs1	normalized growth	1.13 (inactive)
COc1ccccc1N1CCN(S(=O)(=O)c2ccc(C(F)(F)F)cc2)CC1	normalized growth	0.888 (inactive)
Nc1ncnc2c1ncn2[C@@H]1O[C@H](CO)[C@@H](O)[C@@H]1O	normalized growth	1 (inactive)

State recorded normalized growth for all listed compounds.
1. CCOc1ccc(Cc2nccc3cc(OCC)c(OCC)cc23)cc1OCC
2. O=S(=O)(c1ccc(Cl)c(Cl)c1)N1CCN(c2ccc(C(F)(F)F)cn2)CC1

result:
["0.984 (inactive)", "1.11 (inactive)"]

---

# MEASUREMENT NOTES: chemical genetic growth profiling, strain panel (AID 1159580)
# RECORDED CONDITIONS: S. cerevisiae deletion strains, growth OD, locus YMR263W, strain SAP30, active compounds read low
In all, about 5,500 compounds went through this assay and about 2,000 (36%) were called active. Another 18% or so got no clear call; they are omitted. The list shows a part of the results.
OUTCOME MEASURE: normalized growth
Answers are plain numbers.

State recorded normalized growth for all listed molecules.
1. CC(C)(C)c1cc(C(C)(C)C)n(-c2ccc([N+](=O)[O-])cc2)n1
2. NNC(=S)Nc1cc(C(F)(F)F)ccc1Cl
3. CN1CCN(CCCN2c3ccccc3Sc3ccc(Cl)cc32)CC1
4. Cc1onc(-c2c(F)cccc2Cl)c1C(=O)N1CCN(c2ncccc2C(F)(F)F)CC1
5. O=c1n(CCCN2CCN(c3cccc(Cl)c3)CC2)nc2ccccn12

result:
1. 0.999
2. 0.914
3. 0.717
4. 1.01
5. 0.983

---

Assignment: determine reported normalized growth for the given compounds.
# MEASUREMENT NOTES: chemical genetic growth profiling, strain panel (AID 1159580);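 further: tested at 20 µM; growth read once vehicle control cultures reached saturation at 30 °C; 1 = growth at the plate median or of vehicle wells; lower values mean less growth of the strain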
# RECORDED CONDITIONS: S. cerevisiae deletion strains, growth OD, locus YNL197C, strain WHI3, active compounds read low
Among all 5,500 compounds or so, about 2,000 (36%) were called active. About 18% were inconclusive and are not listed. This is one part of the list.
One number for each entry.

CCOC(=O)c1ncn2c1[C@@H]1CCCN1C(=O)c1cc(OC)ccc1-2 1.03
C[N+](C)(C)CC#CCN1CCCC1=O 0.996
CC(C)(C)[C@]1(O)CCN2C[C@H]3c4ccccc4CCc4cccc(c43)[C@@H]2C1 1.02

State recorded normalized growth for all listed compounds.
1. NCCNC(=O)c1ncsc1-c1cccc(F)c1
2. COc1ccc(Cc2nccc3cc(OC)c(OC)cc23)cc1OC
3. COc1ccc2[nH]cc(CCNC(C)=O)c2c1

result:
0.989
0.996
1.01

---

# MEASUREMENT NOTES: chemical genetic growth profiling, strain panel (AID 1159580);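 further: tested at 20 µM; growth read once vehicle control cultures reached saturation at 30 °C; 1 = growth at the plate median or of vehicle wells; lower values mean less growth of the strain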
# RECORDED CONDITIONS: S. cerevisiae deletion strains, growth OD, locus YGL086W, strain mad1, active compounds read low
Screen size: about 5,500 compounds; about 2,000 (36%) were called active. Not shown: some 18% with an inconclusive outcome. The list shows a part of the results.
Assignment: determine reported normalized growth for the given molecules.
Numbers only.

Use these answered entries as a reference point.
MOLECULE	OUTCOME MEASURE	NUMERIC READOUT
CCCCC(=O)O[C@H]1CCC2C3CCc4cc(O)ccc4C3CC[C@@]21C (stereo partly specified)	normalized growth	0.968
O=c1[nH]c2ccccc2n1C1CCN(CCCC(c2ccc(F)cc2)c2ccc(F)cc2)CC1	normalized growth	0.986

State recorded normalized growth for all listed molecules.
1. CCC(=O)O[C@H]1CCC2C3CCc4cc(O)ccc4C3CC[C@@]21C (stereo partly specified)
2. CN(C)c1nc(N(C)C)nc(N(C)C)n1
3. CC(=O)Oc1ccc2c(c1)CCC1C2CC[C@@]2(C)C1CC[C@@H]2OC(C)=O (stereo partly specified)

result:
[0.985, 1, 0.958]

query: Give its normalized growth value. Item: NCCS
result: 1.01

---

# MEASUREMENT NOTES: chemical genetic growth profiling, strain panel (AID 1159580);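 further: tested at 20 µM; growth read once vehicle control cultures reached saturation at 30 °C; 1 = growth at the plate median or of vehicle wells; lower values mean less growth of the strain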
# RECORDED CONDITIONS: S. cerevisiae deletion strains, growth OD, locus YBR009C, strain hhf1, active compounds read low
In all, about 5,500 compounds went through this assay and about 2,000 (36%) were called active. Another 18% or so got no clear call; they are omitted. Some of the results follow.
Assignment: determine reported normalized growth for the given compounds.
Numbers only.

COMPOUND	normalized growth
O=C1c2ccccc2C(=O)c2c(O)c(O)cc(O)c21	0.415

State recorded normalized growth for all listed compounds.
1. O=c1cc(-c2ccc(O)cc2)oc2cc(O[C@@H]3O[C@H](CO)[C@@H](O)[C@H](O)[C@H]3O[C@@H]3OC[C@](O)(CO)[C@H]3O)cc(O)c12
2. CC(=O)c1ccc2c(c1)N(CCCN(C)C)c1ccccc1S2
3. COc1ccc2c(=O)c(CC(=O)O)coc2c1
4. O=C1c2ccc(O)c(O)c2C(=O)c2c(O)ccc(O)c21
5. C[N+]1(C)C2CC[C@H]1CC(OC(=O)C(O)c1ccccc1)C2 (stereo not given in full)
6. CCOC(=O)C1=C(C)NC(C)=C(C(=O)OC)C1c1cccc([N+](=O)[O-])c1 (stereo not given)

result:
1. 1.01
2. 1
3. 0.987
4. 0.667
5. 0.996
6. 1.01

State recorded normalized growth for all listed compounds.
1. CCS(=O)(=O)CCn1c([N+](=O)[O-])cnc1C
2. CN1Cc2c(N)cccc2C(c2ccccc2)C1 (stereo not given)
3. C[C@]12C=CC(=O)C=C1CCC1C2CC[C@]2(C)C(=O)CCC12 (stereo not given in full)

result:
1: 0.962; 2: 1.02; 3: 0.966
